system: ATP-dependent translocase ABCB1 (Homo sapiens)
experiment: Inhibition of human ABCB1 expressed in mouse L5178Y cells assessed as fluorescence activity ratio at 2 uM incubated for 10 mins by flow cytometry based rhodamine-123 accumulation assay (reference value: 0.78)
Assay type: cell-based
readoutType: Ratio

- structureAsSmiles: "COc1ccccc1C(=O)OC[C@]1(C)CC[C@H]2[C@@H](/C=C(\\C)C(=O)[C@@]3(O)C[C@H](C)[C@H](OC(=O)c4ccccc4OC)[C@@H]3[C@H]1O)C2(C)C"
  Ratio: 33.36

(A) CO[C@H]1[C@@H]2[C@H](CC[C@]3(COC(=O)c4ccc(C(F)(F)F)cc4)O[C@@H]3[C@H]3[C@@H](OC(=O)c4ccc(C(F)(F)F)cc4)[C@@H](C)C[C@]3(O)C(=O)[C@@H]1C)C2(C)C
(B) CO[C@H]1[C@@H]2[C@H](CC[C@]3(CO)O[C@@H]3[C@H]3[C@@H](O)[C@@H](C)C[C@]3(O)C(=O)[C@@H]1C)C2(C)C
[Q] Field: lower recorded Ratio (choose A or B ) Answer format: the label of the selected item.
[A] B

###

system: ATP-dependent translocase ABCB1 (Homo sapiens, UniProt P08183)
Sequence (P08183 whole entry): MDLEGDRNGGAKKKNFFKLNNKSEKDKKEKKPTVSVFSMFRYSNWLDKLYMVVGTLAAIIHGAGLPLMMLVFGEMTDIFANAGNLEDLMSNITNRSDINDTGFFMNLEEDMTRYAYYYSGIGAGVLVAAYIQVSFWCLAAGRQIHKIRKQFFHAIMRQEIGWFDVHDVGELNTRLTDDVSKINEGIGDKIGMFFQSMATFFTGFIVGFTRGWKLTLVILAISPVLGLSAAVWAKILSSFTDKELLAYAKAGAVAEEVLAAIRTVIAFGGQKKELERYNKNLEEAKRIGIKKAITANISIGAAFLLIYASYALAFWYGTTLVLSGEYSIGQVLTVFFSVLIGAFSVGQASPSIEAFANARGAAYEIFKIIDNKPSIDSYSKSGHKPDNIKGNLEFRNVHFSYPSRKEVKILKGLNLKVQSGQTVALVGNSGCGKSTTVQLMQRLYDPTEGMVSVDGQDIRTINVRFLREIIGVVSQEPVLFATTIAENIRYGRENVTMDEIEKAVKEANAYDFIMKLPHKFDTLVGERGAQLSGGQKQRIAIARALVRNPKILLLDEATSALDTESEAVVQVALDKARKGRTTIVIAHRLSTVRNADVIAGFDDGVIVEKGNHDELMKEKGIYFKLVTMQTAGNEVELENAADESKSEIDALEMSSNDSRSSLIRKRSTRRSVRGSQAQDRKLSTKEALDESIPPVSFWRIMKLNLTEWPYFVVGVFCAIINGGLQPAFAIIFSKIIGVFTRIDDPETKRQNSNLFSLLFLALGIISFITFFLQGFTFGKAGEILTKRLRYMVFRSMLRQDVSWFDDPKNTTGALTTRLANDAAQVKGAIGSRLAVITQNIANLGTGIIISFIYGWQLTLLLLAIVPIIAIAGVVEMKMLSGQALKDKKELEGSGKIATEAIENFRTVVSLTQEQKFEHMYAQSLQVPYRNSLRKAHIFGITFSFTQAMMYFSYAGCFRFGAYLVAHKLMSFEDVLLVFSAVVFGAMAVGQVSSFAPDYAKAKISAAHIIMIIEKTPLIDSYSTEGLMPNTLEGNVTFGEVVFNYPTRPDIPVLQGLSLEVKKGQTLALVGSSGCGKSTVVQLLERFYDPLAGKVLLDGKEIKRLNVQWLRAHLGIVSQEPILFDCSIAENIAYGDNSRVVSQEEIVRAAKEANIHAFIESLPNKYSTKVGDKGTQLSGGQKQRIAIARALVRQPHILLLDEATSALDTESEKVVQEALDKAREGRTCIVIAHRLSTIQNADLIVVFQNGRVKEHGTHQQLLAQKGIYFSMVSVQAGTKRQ
experiment: Inhibition of ABCB1 in multidrug resistant human COLO320 cells assessed as fluorescence activity ratio at 20 uM incubated for 10 mins by flow cytometry based rhodamine-123 accumulation assay (reference value: 0.62)
readoutType: Ratio

- compound: "C/C1=C\\[C@@H]2[C@H](CC[C@]3(CO3)[C@H](OC(=O)c3cccs3)[C@H]3[C@@H](OC(=O)c4cccs4)[C@@H](C)C[C@]3(O)C1=O)C2(C)C"
  system: "ATP-dependent translocase ABCB1 (Homo sapiens, UniProt P08183)"
  Ratio: 12.16
- compound: "COc1cccc(C(=O)O[C@@H]2[C@@H]3[C@@H](OC(=O)c4cccc(OC)c4)[C@]4(CC[C@H]5[C@@H](/C=C(\\C)C(=O)[C@@]3(O)C[C@@H]2C)C5(C)C)CO4)c1"
  system: "ATP-dependent translocase ABCB1 (Homo sapiens, UniProt P08183)"
  Ratio: 15.4
- compound: "C/C1=C\\[C@@H]2[C@H](CC[C@]3(CO3)[C@H](OC(=O)c3ccc(-c4ccccc4)cc3)[C@H]3[C@@H](OC(=O)c4ccc(-c5ccccc5)cc4)[C@@H](C)C[C@]3(O)C1=O)C2(C)C"
  system: "ATP-dependent translocase ABCB1 (Homo sapiens, UniProt P08183)"
  Ratio: 2.64

(P) C/C1=C\[C@@H]2[C@H](CC[C@]3(CO3)[C@H](OC(=O)c3ccco3)[C@H]3[C@@H](OC(=O)c4ccco4)[C@@H](C)C[C@]3(O)C1=O)C2(C)C
(Q) C/C1=C\[C@@H]2[C@H](CC[C@@](C)(O)[C@H](O)[C@H]3[C@@H](O)[C@@H](C)C[C@]3(O)[C@@H]1O)C2(C)C
[Q] Which of the two items, P and Q , has the greater recorded Ratio? // respond with label for picked entry
[A] P
(P: 5.5, Q: 3.81)

###

system: ATP-dependent translocase ABCB1 (Homo sapiens, UniProt P08183)
experiment: Inhibition of human ABCB1 expressed in mouse L5178Y cells assessed as fluorescence activity ratio at 2 uM incubated for 10 mins by flow cytometry based rhodamine-123 accumulation assay (reference value: 0.78)
Type: cell-based
readoutType: Ratio

Known Ratio results, listed for orientation:
- structureAsSmiles: "C/C1=C\\[C@@H]2[C@H](CC[C@]3(CO3)[C@H](OC(=O)c3cccs3)[C@H]3[C@@H](OC(=O)c4cccs4)[C@@H](C)C[C@]3(O)C1=O)C2(C)C"
  system: "ATP-dependent translocase ABCB1 (Homo sapiens, UniProt P08183)"
  Ratio: 31.06
- structureAsSmiles: "C/C1=C\\[C@@H]2[C@H](CC[C@@](C)(O)[C@H](O)[C@H]3[C@@H](O)[C@@H](C)C[C@]3(O)[C@H]1O)C2(C)C"
  system: "ATP-dependent translocase ABCB1 (Homo sapiens, UniProt P08183)"
  Ratio: 0.54
- structureAsSmiles: "C/C1=C\\[C@@H]2[C@H](CC[C@]3(CO3)[C@H](OC(=O)c3cccc(C)c3)[C@H]3[C@@H](OC(=O)c4cccc(C)c4)[C@@H](C)C[C@]3(O)C1=O)C2(C)C"
  system: "ATP-dependent translocase ABCB1 (Homo sapiens, UniProt P08183)"
  Ratio: 86.39
- structureAsSmiles: "C/C1=C\\[C@@H]2[C@H](CC[C@]3(CO3)[C@H](OC(=O)N3CCOCC3)[C@H]3[C@@H](OC(=O)N4CCOCC4)[C@@H](C)C[C@]3(O)C1=O)C2(C)C"
  system: "ATP-dependent translocase ABCB1 (Homo sapiens, UniProt P08183)"
  Ratio: 1.22
- structureAsSmiles: "CO[C@H]1[C@@H]2[C@H](CC[C@]3(COC(C)=O)O[C@@H]3[C@H]3[C@@H](OC(C)=O)[C@@H](C)C[C@]3(O)C(=O)[C@@H]1C)C2(C)C"
  system: "ATP-dependent translocase ABCB1 (Homo sapiens, UniProt P08183)"
  Ratio: 1.16
- structureAsSmiles: "C/C1=C\\[C@@H]2[C@H](CC[C@]3(CO3)[C@H](OC(=O)c3ccco3)[C@H]3[C@@H](OC(=O)c4ccco4)[C@@H](C)C[C@]3(O)C1=O)C2(C)C"
  system: "ATP-dependent translocase ABCB1 (Homo sapiens, UniProt P08183)"
  Ratio: 6.09
- structureAsSmiles: "C/C1=C\\[C@@H]2[C@H](CC[C@]3(CO3)[C@H](OC(=O)c3ccc(-c4ccccc4)cc3)[C@H]3[C@@H](OC(=O)c4ccc(-c5ccccc5)cc4)[C@@H](C)C[C@]3(O)C1=O)C2(C)C"
  system: "ATP-dependent translocase ABCB1 (Homo sapiens, UniProt P08183)"
  Ratio: 22.82
- structureAsSmiles: "C/C1=C\\[C@@H]2[C@H](CC[C@@](C)(O)[C@H](O)[C@H]3[C@@H](O)[C@@H](C)C[C@]3(O)[C@@H]1O)C2(C)C"
  system: "ATP-dependent translocase ABCB1 (Homo sapiens, UniProt P08183)"
  Ratio: 0.51

(A) C/C1=C\[C@@H]2[C@H](CC[C@]3(CO3)[C@H](OC(=O)c3ccc4ccccc4c3)[C@H]3[C@@H](OC(=O)c4ccc5ccccc5c4)[C@@H](C)C[C@]3(O)C1=O)C2(C)C
(B) CCN(CC)C(=O)O[C@@H]1[C@@H]2[C@@H](OC(=O)N(CC)CC)[C@]3(CC[C@H]4[C@@H](/C=C(\C)C(=O)[C@@]2(O)C[C@@H]1C)C4(C)C)CO3
(C) CC(=O)O[C@@H]1[C@@H]2[C@@H](OC(C)=O)[C@](C)(OC(C)=O)CC[C@H]3[C@@H](/C=C(\C)[C@H](OC(C)=O)[C@@]2(OC(C)=O)C[C@@H]1C)C3(C)C
[Q] # desc sort on Ratio across 3 compounds Record the ranking as a list of labels in the requested order.
[A] A, C, B
(A: 58.84, C: 11.37, B: 1.71)

###

system: ATP-dependent translocase ABCB1 (Homo sapiens)
experiment: Inhibition of ABCB1 in multidrug resistant human COLO320 cells assessed as fluorescence activity ratio at 2 uM incubated for 10 mins by flow cytometry based rhodamine-123 accumulation assay (reference value: 0.62)
readoutType: Ratio

- structureAsSmiles: "CCO[C@@H]1[C@@H]2C(=O)C(O)(C[C@H](C)[C@@H]2O)/C(C)=C\\[C@@H]2[C@H](CC[C@@]1(O)CO)C2(C)C"
  system: "ATP-dependent translocase ABCB1 (Homo sapiens)"
  Ratio: 1.5
- structureAsSmiles: "C/C1=C\\[C@@H]2[C@H](CC[C@@](C)(O)[C@H](O)[C@H]3[C@@H](O)[C@@H](C)C[C@]3(O)[C@@H]1O)C2(C)C"
  system: "ATP-dependent translocase ABCB1 (Homo sapiens)"
  Ratio: 1.02
- structureAsSmiles: "C/C1=C\\[C@@H]2[C@H](CC[C@]3(CO3)[C@H](OC(=O)C34CC5CC(CC(C5)C3)C4)[C@H]3[C@@H](OC(=O)C45CC6CC(CC(C6)C4)C5)[C@@H](C)C[C@]3(O)C1=O)C2(C)C"
  system: "ATP-dependent translocase ABCB1 (Homo sapiens)"
  Ratio: 1.2
- structureAsSmiles: "C/C1=C\\[C@@H]2[C@H](CC[C@@](C)(O)[C@H](O)[C@H]3[C@@H](OC(=O)c4ccccc4)[C@@H](C)C[C@]3(O)[C@H]1O)C2(C)C"
  system: "ATP-dependent translocase ABCB1 (Homo sapiens)"
  Ratio: 1.37

###

System: L5178Y
experiment: Cytotoxicity against chemosensitive wild type parental mouse L5178Y cells incubated for 24 hrs by MTT assay
Assay type: functional, cell-based
readoutType: IC50

- structureAsSmiles: "C/C1=C\\[C@@H]2[C@H](CC[C@@](C)(O)[C@H](O)[C@H]3[C@@H](O)[C@@H](C)C[C@]3(O)[C@@H]1O)C2(C)C"
  IC50: "> 100 µM"
- structureAsSmiles: "C/C1=C\\[C@@H]2[C@H](CC[C@]3(CO3)[C@H](OC(=O)N3CCOCC3)[C@H]3[C@@H](OC(=O)N4CCOCC4)[C@@H](C)C[C@]3(O)C1=O)C2(C)C"
  IC50: "> 100 µM"
- structureAsSmiles: "CO[C@H]1[C@@H]2[C@H](CC[C@]3(CO)O[C@@H]3[C@H]3[C@@H](O)[C@@H](C)C[C@]3(O)C(=O)[C@@H]1C)C2(C)C"
  IC50: "> 100 µM"

Let's switch to this compound now.
Recorded IC50 (compound COc1ccccc1C(=O)OC[C@]1(C)CC[C@H]2[C@@H](/C=C(\C)C(=O)[C@@]3(O)C[C@H](C)[C@H](OC(=O)c4ccccc4OC)[C@@H]3[C@H]1O)C2(C)C ): 29.9 µM
